# target entity: T1, EsCas13d, nuclease-dead (Eubacterium siraeum, UniProt B0MS50, R295A;H300A;R849A;H854A)
# T1 sequence: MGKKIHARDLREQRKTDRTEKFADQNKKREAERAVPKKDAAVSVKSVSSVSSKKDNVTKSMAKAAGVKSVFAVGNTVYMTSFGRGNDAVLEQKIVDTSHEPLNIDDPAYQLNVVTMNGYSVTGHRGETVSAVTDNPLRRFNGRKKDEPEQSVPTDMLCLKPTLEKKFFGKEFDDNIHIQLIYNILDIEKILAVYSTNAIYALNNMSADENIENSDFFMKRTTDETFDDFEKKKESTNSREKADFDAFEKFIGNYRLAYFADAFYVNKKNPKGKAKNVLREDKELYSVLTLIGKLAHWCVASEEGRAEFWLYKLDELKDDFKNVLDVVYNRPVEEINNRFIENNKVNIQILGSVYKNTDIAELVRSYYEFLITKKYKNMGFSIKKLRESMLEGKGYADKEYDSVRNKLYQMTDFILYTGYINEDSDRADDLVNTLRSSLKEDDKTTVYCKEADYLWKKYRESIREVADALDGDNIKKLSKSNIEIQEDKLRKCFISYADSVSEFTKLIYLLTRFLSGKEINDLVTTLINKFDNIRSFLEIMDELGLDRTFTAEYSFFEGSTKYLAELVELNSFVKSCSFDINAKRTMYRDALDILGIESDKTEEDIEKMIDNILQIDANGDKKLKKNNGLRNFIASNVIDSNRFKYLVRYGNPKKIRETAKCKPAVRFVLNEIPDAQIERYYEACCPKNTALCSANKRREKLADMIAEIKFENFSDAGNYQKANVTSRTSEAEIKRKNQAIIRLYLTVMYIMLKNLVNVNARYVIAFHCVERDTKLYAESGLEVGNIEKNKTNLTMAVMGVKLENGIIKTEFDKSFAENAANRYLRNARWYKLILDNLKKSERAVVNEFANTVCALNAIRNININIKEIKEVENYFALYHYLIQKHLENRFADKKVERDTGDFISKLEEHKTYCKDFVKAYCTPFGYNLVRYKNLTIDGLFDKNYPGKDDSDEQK
# procedure details: crRNA (strand 1, pre-loaded); Mg2+; 40 mM Tris-HCl pH 7.5, 150 mM NaCl, 6 mM MgCl2, 1 mM DTT, 0.1% Tween-20, 0.2 mg/ml BSA; 25 C; 10 min per concentration, then washed
# condition notes: tags: His6-TwinStrep-SUMO cleaved; N-terminal SNAP kept (SNAP-Surface 488); label: 3' end held by stalled T7 RNA polymerase
Mark each entry T if its Kd sits below 20 nM, and F for all others.

{"binder": "target 1 C7A,C22U (mixed) RNA 1: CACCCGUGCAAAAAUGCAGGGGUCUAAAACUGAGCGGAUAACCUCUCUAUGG RNA 2: GGGAAUGGAUCCACAUCUACGAAUUCGUAUCAUAGAGAGGUUAUACGCUCACCGAGAUCGGAAGAGCACACGU", "category": "T"}
{"binder": "target 1 del7,del20 (mixed) RNA 1: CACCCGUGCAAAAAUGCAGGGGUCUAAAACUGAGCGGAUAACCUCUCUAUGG RNA 2: GGGAAUGGAUCCACAUCUACGAAUUCGUACCUAGAGAGGUUAUCGCUCACCGAGAUCGGAAGAGCACACGU", "category": "F"}
{"binder": "target 1 MT 5'PFS GCG 3'PFS UUU (mixed) RNA 1: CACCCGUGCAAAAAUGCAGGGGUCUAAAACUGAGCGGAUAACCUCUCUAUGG RNA 2: GGGAAUGGAUCCACAUCUACGAAUUCGCGCCAUAGAGAGGUUAUCCGCUCAUUUAGAUCGGAAGAGCACACGU", "category": "T"}
{"binder": "target 1 C6A,A14C (mixed) RNA 1: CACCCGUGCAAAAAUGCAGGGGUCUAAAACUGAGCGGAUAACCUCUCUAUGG RNA 2: GGGAAUGGAUCCACAUCUACGAAUUCGUACCAUAGAGCGGUUAUCAGCUCACCGAGAUCGGAAGAGCACACGU", "category": "T"}
{"binder": "target 1 G12U,G13A (mixed) RNA 1: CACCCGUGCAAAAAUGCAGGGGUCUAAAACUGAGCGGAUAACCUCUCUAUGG RNA 2: GGGAAUGGAUCCACAUCUACGAAUUCGUACCAUAGAGAAUUUAUCCGCUCACCGAGAUCGGAAGAGCACACGU", "category": "T"}
{"binder": "target 1 MT 5'PFS GCG 3'PFS ACA (mixed) RNA 1: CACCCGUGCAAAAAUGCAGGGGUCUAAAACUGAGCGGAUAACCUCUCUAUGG RNA 2: GGGAAUGGAUCCACAUCUACGAAUUCGCGCCAUAGAGAGGUUAUCCGCUCAACAAGAUCGGAAGAGCACACGU", "category": "F"}
{"binder": "target 1 C7A,A18G (mixed) RNA 1: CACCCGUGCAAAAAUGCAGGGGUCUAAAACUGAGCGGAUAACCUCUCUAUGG RNA 2: GGGAAUGGAUCCACAUCUACGAAUUCGUACCAUGGAGAGGUUAUACGCUCACCGAGAUCGGAAGAGCACACGU", "category": "F"}
{"binder": "target 1 insA 3' of 7,insG 3' of 3 (mixed) RNA 1: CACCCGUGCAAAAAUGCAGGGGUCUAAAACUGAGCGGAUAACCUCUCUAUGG RNA 2: GGGAAUGGAUCCACAUCUACGAAUUCGUACCAUAGAGAGGUUAUCACGCUGCACCGAGAUCGGAAGAGCACACGU", "category": "T"}
{"binder": "target 1 insU 3' of 14,insC 3' of 13 (mixed) RNA 1: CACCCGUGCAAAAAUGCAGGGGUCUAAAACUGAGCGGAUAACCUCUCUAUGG RNA 2: GGGAAUGGAUCCACAUCUACGAAUUCGUACCAUAGAGAUGCGUUAUCCGCUCACCGAGAUCGGAAGAGCACACGU", "category": "F"}
{"binder": "target 2 MT 5'PFS UCG 3'PFS CGG (mixed) RNA 1: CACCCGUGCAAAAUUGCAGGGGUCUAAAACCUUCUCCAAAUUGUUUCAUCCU RNA 2: GGGAAUGGAUCCACAUCUACGAAUUCUCGAGGAUGAAACAAUUUGGAGAAGCGGAGAUCGGAAGAGCACACGU", "category": "F"}
{"binder": "target 3 A18G,U20A (mixed) RNA 1: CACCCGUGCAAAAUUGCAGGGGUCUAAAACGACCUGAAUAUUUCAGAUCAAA RNA 2: GGGAAUGGAUCCACAUCUACGAAUUCGUUUUAGGUCUGAAAUAUUCAGGUCUGCAGAUCGGAAGAGCACACGU", "category": "F"}
{"binder": "target 3 U2A,A5C (mixed) RNA 1: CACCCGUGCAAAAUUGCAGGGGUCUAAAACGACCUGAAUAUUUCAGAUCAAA RNA 2: GGGAAUGGAUCCACAUCUACGAAUUCGUUUUUGAUCUGAAAUAUUCCGGACUGCAGAUCGGAAGAGCACACGU", "category": "F"}
{"binder": "target 1 insA 3' of 6,insU 3' of 1 (mixed) RNA 1: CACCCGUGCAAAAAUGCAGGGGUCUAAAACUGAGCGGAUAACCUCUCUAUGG RNA 2: GGGAAUGGAUCCACAUCUACGAAUUCGUACCAUAGAGAGGUUAUCCAGCUCAUCCGAGAUCGGAAGAGCACACGU", "category": "F"}
{"binder": "target 1 insG 3' of 18,insG 3' of 14 (mixed) RNA 1: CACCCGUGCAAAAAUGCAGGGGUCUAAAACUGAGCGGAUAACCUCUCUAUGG RNA 2: GGGAAUGGAUCCACAUCUACGAAUUCGUACCAUAGGAGAGGGUUAUCCGCUCACCGAGAUCGGAAGAGCACACGU", "category": "F"}

All values here come from paper PMC10786891.
